Attribution: PubChem BioAssay AID1159580

assay: chemical genetic growth profiling, strain panel (AID 1159580);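 also: tested at 20 µM; growth read once vehicle control cultures reached saturation at 30 °C; 1 = growth at the plate median or of vehicle wells; lower values mean less growth of the strain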; conditions: S. cerevisiae deletion strains, growth OD, locus YGR078C, strain PAC10
The campaign covered roughly 5,500 compounds. About 2,000 (36%) were called active. Inconclusive results (about 18%) are left out. Rule as the data show it: active = normalized growth mostly below about 0.91 (no sharp cut-off); inconclusive = no clear call, values can overlap the other calls; inactive = mostly above about 0.92. Some of the results follow.
Hi there, use one of these labels in your reply, thanks! true (1) = active, false (0) = inactive

Field: example entries. Status: answers known.
compound	assigned-class
COC(=O)[C@]1(C)CCC[C@]2(C)c3ccc(C(C)C)cc3C(=O)CC12 (stereo partly specified)	false (0)
CC(C)c1c(O)ccc2c1CCC1[C@@](C)(CO)CCC[C@]21C (stereo partly specified)	false (0)
CSc1nc(N)c2ncn([C@@H]3O[C@H](COP(=O)(O)OP(=O)(O)OP(=O)(O)O)[C@H](O)C3O)c2n1 (stereo partly specified)	false (0)
O=C(O[C@@H]1Cc2c(O)cc(O)cc2O[C@@H]1c1cc(O)c(=O)c2c(O)c(O)cc([C@H]3Oc4cc(O)cc(O)c4C[C@H]3OC(=O)c3cc(O)c(O)c(O)c3)c2c1)c1cc(O)c(O)c(O)c1	true (1)
Cc1cc(C)c(CSCCNC(=O)Nc2ccc(F)cc2F)c(C)c1	false (0)

With those in mind, consider the next compound.
query: Tell me the recorded outcome of this test for O=C(OC1Cc2c(O)cc(O)cc2OC1c1cc(=O)c(O)c2c(O)c(O)cc(C3Oc4cc(O)cc(O)c4CC3O)c2c1)c1cc(O)c(O)c(O)c1 (stereo unspecified) .
result: true (1)

* * *

assay: chemical genetic growth profiling, strain panel (AID 1159580); settings: S. cerevisiae deletion strains, growth OD, locus YBR279W, strain paf1
Screen size: about 5,500 compounds; about 2,000 (36%) were called active. Roughly 18% stayed inconclusive and do not appear here. Rule as the data show it: active = normalized growth mostly below about 0.91 (no sharp cut-off); inconclusive = no clear call, values can overlap the other calls; inactive = mostly above about 0.92. The list shows a part of the results.
Hi there, use one of these labels in your reply, thanks! 1 for active, 0 for inactive

Field: example entries. Status: answers known.
compound	assigned-class
CC(C)c1c(O)ccc2c1CCC1C(C)(C)CCC[C@]21C (stereo partly drawn)	1
CC(C)c1c(O)c(-c2cc3c(c(C(C)C)c2O)CCC2C(C)(C)CCC[C@]32C)cc2c1CCC1C(C)(C)CCC[C@]21C (stereo partly drawn)	0
Oc1ccc2c(c1)OCC1(O)Cc3cc(O)c(O)cc3C21 (stereo not drawn)	0
CN[C@@H]1[C@@H](O)C(OC2[C@@H](N)C[C@@H](N)[C@H](O[C@H]3O[C@H](C(C)O)[C@@H](O)[C@H](O)[C@H]3N)[C@H]2O)OC[C@]1(C)O (stereo partly drawn)	0
O=C(O)C1=C[C@@H](O)[C@@H](O)[C@H](O)C1	0
COc1cc(OC)c2c(=O)c(OC)c(-c3ccc(OC)c(OC)c3)oc2c1	0

query: Tell me the recorded outcome of this test for Cc1ccccc1OCC(O)CO (stereo not drawn) .
result: 0

query: Tell me the recorded outcome of this test for C[C@]12C=CC(=O)C=C1CCC1C2[C@@H](O)C[C@@]2(C)C1CC[C@]2(O)C(=O)COP(=O)(O)O (stereo partly drawn) .
result: 0

query: Tell me the recorded outcome of this test for CC(=O)[C@@]1(O)CCC2C3C[C@H](C)C4=CC(=O)C=CC4(C)[C@@]3(F)[C@@H](O)C[C@@]21C (stereo partly drawn) .
result: 0

query: Tell me the recorded outcome of this test for CNC(C)C(O)c1ccccc1 (stereo not drawn) .
result: 0

query: Tell me the recorded outcome of this test for CC(=O)OCC1=C(C(=O)O)N2C(=O)[C@@H](NC(=O)Cc3cccs3)[C@H]2SC1 .
result: 0

query: Tell me the recorded outcome of this test for NC(=O)NCCCC(N)C(=O)O (stereo not drawn) .
result: 0

query: Tell me the recorded outcome of this test for NC(=NCCC[C@H](N)C(=O)O)N[N+](=O)[O-] .
result: 0

query: Tell me the recorded outcome of this test for NS(=O)(=O)c1cc(C2(O)NC(=O)c3ccccc32)ccc1Cl (stereo not drawn) .
result: 0

query: Tell me the recorded outcome of this test for COc1ccccc1/C=C\C(=O)O .
result: 0

query: Tell me the recorded outcome of this test for CCCCCC(=O)Cc1cc(O)cc(O)c1C(=O)Oc1cc(CC(=O)CCCCC)c(C(=O)O)c(OC)c1 .
result: 0

* * *

assay: chemical genetic growth profiling, strain panel (AID 1159580);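 also: tested at 20 µM; growth read once vehicle control cultures reached saturation at 30 °C; 1 = growth at the plate median or of vehicle wells; lower values mean less growth of the strain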; conditions: S. cerevisiae deletion strains, growth OD, locus YDL192W, strain arf1
About 2,000 (36%) of roughly 5,500 compounds were called active. Another 18% or so got no clear call; they are omitted. Cut-off read from the data, not from the text of the source: active = normalized growth mostly below about 0.91 (no sharp cut-off); inconclusive = no clear call, values can overlap the other calls; inactive = mostly above about 0.92. Some of the results follow.
Hi there, use one of these labels in your reply, thanks! active, inactive

Field: example entries. Status: answers known.
> print(dat)
                                   compound  assigned.class
1  NC(=O)c1ncn([C@@H]2O[C@H](CO)[C@@H](O)[C@H]2O)n1        inactive
2          CN(C)c1nc(N)c(C(=O)N=C(N)N)nc1Cl        inactive
3  CC1CCC2(OC1)OC1CC3C4CC[C@H]5C[C@@H](O)CC[C@]5(C)C4CC(=O)[C@]3(C)C1C2C (some centres not stated)        inactive
4         CCCCCCCCCCCC1=C(O)C(=O)C=C(O)C1=O          active

query: Tell me the recorded outcome of this test for CC(=O)OC1CN2CCC1CC2 (configuration not stated) .
result: inactive

* * *

experiment: chemical genetic growth profiling, strain panel (AID 1159580);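 also: tested at 20 µM; growth read once vehicle control cultures reached saturation at 30 °C; 1 = growth at the plate median or of vehicle wells; lower values mean less growth of the strain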; details: S. cerevisiae deletion strains, growth OD, locus YPL051W, strain arl3, active compounds read low
About 2,000 (36%) of roughly 5,500 compounds were called active. Roughly 18% stayed inconclusive and do not appear here. The list shows a part of the results.
normalized growth: recorded values
Write the value as a bare number.

Please review the following examples before continuing.
compound	measured-metric	result-number
CCN[C@@H]1C[C@H](N)[C@@H](O[C@H]2OC(CN)=CC[C@H]2N)[C@H](O)[C@H]1OC1OC[C@](C)(O)[C@H](NC)[C@H]1O (stereo partly drawn)	normalized growth	1
NC(=O)NCCCC(N)C(=O)O (stereo not drawn)	normalized growth	0.981
CCc1cc(C(N)=S)ccn1	normalized growth	0.998
C=CC1C2=CCOC(=O)C2=COC1OC1OC(CO)C(O)C(O)C1O (stereo not drawn)	normalized growth	1.01
CC(C)(C)NCC(O)c1cc(Cl)c(N)c(Cl)c1 (stereo not drawn)	normalized growth	0.995
CCCCC1C(=O)N(c2ccccc2)N(c2ccc(O)cc2)C1=O (stereo not drawn)	normalized growth	1.01

query: Need normalized growth of CN[C@@H]1[C@@H](O)C(OC2[C@@H](N)C[C@@H](N)[C@H](O[C@H]3O[C@H](C(C)O)[C@@H](O)[C@H](O)[C@H]3N)[C@H]2O)OC[C@]1(C)O (stereo partly drawn) , thanks.
result: 0.983

query: Need normalized growth of NC(=O)c1ncn([C@@H]2O[C@H](CO)[C@@H](O)[C@H]2O)n1 , thanks.
result: 0.98

* * *

experiment: chemical genetic growth profiling, strain panel (AID 1159580);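 also: tested at 20 µM; growth read once vehicle control cultures reached saturation at 30 °C; 1 = growth at the plate median or of vehicle wells; lower values mean less growth of the strain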; settings: S. cerevisiae deletion strains, growth OD, locus YCL029C, strain bik1
About 2,000 (36%) of roughly 5,500 compounds were called active. Inconclusive results (about 18%) are left out. No stated cut-off is given here; in the data, active means normalized growth mostly below about 0.91 (no sharp cut-off); inconclusive means no clear call, values can overlap the other calls; inactive means mostly above about 0.92. Some of the results follow.
Hi there, use one of these labels in your reply, thanks! class 1 for active, class 0 for inactive

Field: example entries. Status: answers known.
compound	assigned-class
O=C(O)C1=C[C@@H](O)[C@@H](O)[C@H](O)C1	class 0
COc1ccc2c3c1OC1C(O)CC=C4C(C2)N(C)CCC431 (centres undefined)	class 0
CCOC(=O)NC1=C(C2CC2)C(=O)C(NC(=O)OCC)=C(C2CC2)C1=O	class 0
COc1cccc2c(C)cc(=O)[nH]c12	class 0
O=C(O[C@@H]1Cc2c(O)cc(O)cc2O[C@@H]1c1cc(O)c(=O)c2c(O)c(O)cc([C@H]3Oc4cc(O)cc(O)c4C[C@H]3O)c2c1)c1cc(O)c(O)c(O)c1	class 1
CCOCN(C(=O)CCl)c1c(C)cccc1CC	class 0
O=C(O[C@@H]1Cc2c(O)cc(O)cc2O[C@@H]1c1cc(O)c(=O)c2c(O)c(O)cc([C@H]3Oc4cc(O)cc(O)c4C[C@H]3OC(=O)c3cc(O)c(O)c(O)c3)c2c1)c1cc(O)c(O)c(O)c1	class 0
CN1C[C@H](C(=O)N[C@]2(C)O[C@@]3(O)[C@@H]4CCCN4C(=O)[C@H](Cc4ccccc4)N3C2=O)C[C@@H]2c3cccc4[nH]cc(c34)C[C@H]21	class 0

query: Tell me the recorded outcome of this test for O=c1c(O)c(-c2ccc(O)cc2O)oc2cc(O)cc(O)c12 .
result: class 0

query: Tell me the recorded outcome of this test for NC(=O)CN1CCCC1=O .
result: class 0

query: Tell me the recorded outcome of this test for COc1ccc(-c2oc3cc(O[C@H]4O[C@H](CO)[C@@H](O)[C@H](O)[C@H]4O)c(OC)c(O)c3c(=O)c2OC)cc1O .
result: class 0

query: Tell me the recorded outcome of this test for CC(=O)Oc1ccc2c(c1OC(C)=O)OCC1(O)Cc3c(cc(OC(C)=O)c(OC(C)=O)c3OC(C)=O)C21 (centres undefined) .
result: class 0

query: Tell me the recorded outcome of this test for CCCCCCC(C)OC(=O)COc1ccc(Cl)cc1Cl (centres undefined) .
result: class 0

query: Tell me the recorded outcome of this test for O=C(OC1Cc2c(O)cc(O)cc2OC1c1cc(=O)c(O)c2c(O)c(O)cc(C3Oc4cc(O)cc(O)c4CC3O)c2c1)c1cc(O)c(O)c(O)c1 (centres undefined) .
result: class 1

query: Tell me the recorded outcome of this test for C[C@@H]1CC[C@@]2(OC1)OC1CC3C4CC=C5C[C@@H](O)CC[C@]5(C)C4CC[C@]3(C)C1[C@@H]2C (some centres undefined) .
result: class 0

query: Tell me the recorded outcome of this test for CN[C@@H]1C(O)[C@@H](O[C@@H]2[C@@H](O)[C@H](O[C@H]3OC(CN)=CC[C@H]3N)[C@@H](N)C[C@H]2N)OC[C@]1(C)O (some centres undefined) .
result: class 0

query: Tell me the recorded outcome of this test for CCc1cccc(CC)c1N(COC)C(=O)CCl .
result: class 0

query: Tell me the recorded outcome of this test for CNC(=O)Oc1cccc2c1OC(C)(C)O2 .
result: class 0

query: Tell me the recorded outcome of this test for NC(=O)c1ncn([C@@H]2O[C@H](CO)[C@@H](O)[C@H]2O)n1 .
result: class 0
